Where do these numbers come from? They come from patent US6737383B1.

system: wild oat; assay: Test B pre/postemergence wild oat; assay type: in vivo, Avena fatua; details: Preemergence, Rate 250 g/ha; scale of 0 to 10 where 0 is no effect and 10 is complete control
Reported Property: Plant response rating, Wild oats
Answer using only a numeral; do not append any unit.

Exercise: Specify Plant response rating, Wild oats for Cc1nn(C)c(Cl)c1-n1c(=O)on(C(=O)N(c2ccc(F)cc2)C(C)C)c1=O [Compound 95] , system wild oat.
Key: 2

Exercise: Specify Plant response rating, Wild oats for Cc1ccccc1-n1c(=O)on(C(=O)N(c2cc(F)ccc2F)C(C)C)c1=O [Compound 68] , system wild oat.
Key: 2

Exercise: Specify Plant response rating, Wild oats for CCn1c(=O)on(C(=O)N(c2ccc(F)cc2)C(C)C)c1=O [Compound 107] , system wild oat.
Key: 10

Exercise: Specify Plant response rating, Wild oats for COc1ccc(N(C(=O)n2oc(=O)n(-c3ccccc3C)c2=O)C(C)C)cc1 [Compound 49] , system wild oat.
Key: 0
